Molecular target: full length human PD-L1 (amino acids 1 to 290 of NP_054862.1) on transfected cells (human, UniProt Q9NZQ7 19-290)
Sequence (Q9NZQ7 19-290 limits assumed): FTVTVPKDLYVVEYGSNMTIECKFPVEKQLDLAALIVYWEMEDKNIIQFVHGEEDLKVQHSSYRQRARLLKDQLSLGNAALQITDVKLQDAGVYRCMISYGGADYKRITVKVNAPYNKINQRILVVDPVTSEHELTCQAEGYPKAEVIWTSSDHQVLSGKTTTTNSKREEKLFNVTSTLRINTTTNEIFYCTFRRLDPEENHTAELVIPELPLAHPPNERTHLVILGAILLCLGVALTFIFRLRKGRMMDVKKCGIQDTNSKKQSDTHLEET
Assay: cell-based or functional assay
# reported Emax mean [%] @ 100 nM; entries follow
// note: answer is a bare numeric in %

// Emax mean [%] @ 100 nM lookup, key: H2aM8310N (antibody, V domains shown, human variable regions, mouse IgG2 Fc (H2aM prefix); also called H2M8310N) VH: QVQLVQSGAEVKKPGASVQVSCKASGYSFTGYYIHWVRQAPGQGLEWMGWINPNSGTKKYAHKFQGRVTMTRDTSIDTAYMILSSLISDDTAVYYCARDEDWNFGSWFDSWGQGTLVTVSS VL: DIVMTQTPLSSPVTLGQPASISCRSSQTLVHGDGNTYLSWIQQRPGQPPRLLIYKVSNQFSGVPDRFSGSGAGTDFTLKISRVEAEDVGLYFCMQATHFPITFGQGTRLEIK
113

# lookup: Emax mean [%] @ 100 nM of H1H9329P (antibody, V domains shown, human IgG1 Fc (H1H prefix)) VH: EVQLVESGGGLVQSGGSLRLSCAASGFTFSSYWMSWVRQAPGKGLEWVANIKQDGSEKYYVDSVKGRFTISRDNAKNSLYLQMNSLRADDTAVYYCARDDIVVVPAPMGYYYYYFGMDVWGQGTTVTVSS VL: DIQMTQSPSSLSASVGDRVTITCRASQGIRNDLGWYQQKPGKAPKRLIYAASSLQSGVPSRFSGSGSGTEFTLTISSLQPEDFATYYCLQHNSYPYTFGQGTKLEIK
124

// Emax mean [%] @ 100 nM lookup, key: H1H9336P (antibody, V domains shown, human IgG1 Fc (H1H prefix)) VH: EVQLVESGGGLVQPGRSLRLSCAASGFTFDDFAMHWVRQAPGKGLEWVSGISWTGGNMDYANSVKGRFTISREDAKNSLYLQMNSLRAADTALYYCVKDIRGIVATGGAFDIWGRGTMVTVSS VL: DIQMTQSPSSLSASVGDRVTISCRASQTISTYLNWFQQKPGKAPKLLIYVVSSLQSGVPSRFSGSGSGTDFTLTISSLQPEDFATYYCQQSYSTPFTFGPGTKVDIK
163

Where do these numbers come from? They come from patent US20210380702A1.
